- System: Jurkat T-lymphocyte cell line
- Assay overview: Cytotoxicity, Hoechst 33258 staining and flow cytometry (FACS LSRII)
- Type: cell-based
- Condition details: Homo sapiens, Jurkat, 24 h, 24 h incubation; flow cytometry; read-out: EC50 ± SEM Jurkat
Measurement label: EC50 (µM)
Numbers only; they are read as µM.

Q. Endpoint output: EC50 of COc1cc(O)c2c(c1)C(=O)C1=C(C[C@@H](OC(C)=O)[C@@H](C)O1)C2=O . Value?
A. 93.2

Q. Report EC50 for COc1cc(O)c2c(c1)C(=O)C1=C(C2=O)[C@H](O)[C@@H](O)[C@@H](C)O1 (relative stereo) please.
A. 16.5

====

- Test system: K. rhizophila ATCC 9341
Measurement label: MIC (µM)
Give the quantity in µM, number only.

Q. I am curious: what MIC value has been reported for COc1cc(O)c2c(c1)C(=O)C1=C(C2=O)[C@@H](OC(C)=O)[C@@H](O)[C@@H](C)O1 [Compound 1] ?
A. 1

Q. MIC for COc1cc(O)c2c(c1)C(=O)C1=C(C2=O)[C@H](O)[C@@H](O)[C@@H](C)O1 (relative stereo) [Compound 3] ?
A. 8.3

Q. Bench note: what MIC did COc1cc(O)c2c(c1)C(=O)C1=C(C[C@@H](OC(C)=O)[C@@H](C)O1)C2=O [Compound 7] show?
A. 4.2

Q. So what's the measured MIC for this one? O=C(N[C@H](CO)[C@H](O)c1ccc([N+](=O)[O-])cc1)C(Cl)Cl [chloramphenicol, reference compound]
A. 10.3

Q. What value of MIC has been recorded for this entry: COc1cc(O)c2c(c1)C(=O)C1=C(C[C@@H](O)[C@@H](C)O1)C2=O [Compound 6]
A. 8.3

Q. Suppose we examine the compound COc1cc(O)c2c(c1)C(=O)C1=C(C2=O)[C@@H](O)[C@@H](OC(C)=O)[C@@H](C)O1 [Compound 5] ; what MIC value has been reported?
A. 2.1

====

- Test system: T. b. brucei 427
- Assay overview: Anti-trypanosomal activity, resazurin (AB assay), bloodstream form
- Format: cell-based
- Condition details: Trypanosoma brucei, 72 h, axenic, 48 h + 24 h resazurin
Measurement label: pEC50
Scale: pEC50 equals -log10([C]), with [C] in mol/L.

Q. I have this compound here, COc1cc(O)c2c(c1)C(=O)C1=C(C[C@@H](O)[C@@H](C)O1)C2=O [Compound 6] , and I need its recorded pEC50.
A. 5.29

Q. What does the data say about its pEC50? Entry: COc1cc(O)c2c(c1)C(=O)C1=C(C2=O)[C@H](O)[C@@H](O)[C@@H](C)O1 (relative stereo) [Compound 3]
A. 5.37

Q. Suppose we examine the compound COc1cc(O)c2c(c1)C(=O)C1=C(C[C@@H](OC(C)=O)[C@@H](C)O1)C2=O [Compound 7] ; what pEC50 value has been reported?
A. 6.05

Q. Consider the compound COc1cc(O)c2c(c1)C(=O)C1=C(C2=O)[C@@H](O)[C@@H](OC(C)=O)[C@@H](C)O1 [Compound 5] and give its measured pEC50.
A. 7.22

Q. If you can, please state the reported pEC50 value of COc1cc(O)c2c(c1)C(=O)C1=C(C2=O)[C@@H](OC(C)=O)[C@@H](O)[C@@H](C)O1 [Compound 1] .
A. 7.22
